- testTarget: the molecule itself
- protocolDetails: ThT fluorescence fibrillation kinetics; self-assembly into amyloid without seeds; 15 µM FapC (wt or mutant; wt also 1-15 µM), 50 mM Tris/HCl pH 7.4, 40 µM ThT, 37 °C, no shaking, followed for 120 h

protein	binding result
FapC UK4 Asn200Ala (natural protein, Pseudomonas sp. UK4, FapC, Pseudomonas sp; UK4, point mutant made on the FapC UK4 plasmid; Same construct as m1 but for the mutation; source: E. coli BL21 (DE3), purified (Ni-NTA in 7.5 M guanidine hydrochloride), desalted) GPAEKWKPTPAPTGTVAAAVTDTQVSKDNKFDDTKTLNNAGANGSLSNSKGNLGANIAAGSGNQQDNAAAITSSAGDAATVFAVADIYQESKDNKFTNKGTQNNALLNNSANNSSGNVGVNVAAGQGNQQKNNLAIVTADGKNVAAASNTEQVSLDNHFLNEASSKHSYKPQYVVANAGLLNSANNASGNIGVNVAAGAGNQQSNTLTLGSGCTVCAAGTGSKLAF	binds
FapC UK4 Asn87Ala (natural protein, Pseudomonas sp. UK4, FapC, Pseudomonas sp; UK4, point mutant made on the FapC UK4 plasmid; Same construct as m1 but for the mutation; also called Asn87 mutant; source: E. coli BL21 (DE3), purified (Ni-NTA in 7.5 M guanidine hydrochloride), desalted) GPAEKWKPTPAPTGTVAAAVTDTQVSKDNKFDDTKTLNNAGANGSLSNSKGNLGANIAAGSGAQQDNAAAITSSAGDAATVFAVADIYQESKDNKFTNKGTQNNALLNNSANNSSGNVGVNVAAGQGNQQKNNLAIVTADGKNVAAASNTEQVSLDNHFLNEASSKHSYKPQYVVNNAGLLNSANNASGNIGVNVAAGAGNQQSNTLTLGSGCTVCAAGTGSKLAF	binds
FapC UK4 N145A (natural protein, Pseudomonas sp. UK4, FapC, Pseudomonas sp; UK4, point mutant made on the FapC UK4 plasmid; Same construct as m1 but for the mutation; source: E. coli BL21 (DE3), purified (Ni-NTA in 7.5 M guanidine hydrochloride), desalted) GPAEKWKPTPAPTGTVAAAVTDTQVSKDNKFDDTKTLNNAGANGSLSNSKGNLGANIAAGSGNQQDNAAAITSSAGDAATVFAVADIYQESKDNKFTNKGTQNNALLNNSANNSSGNVGVAVAAGQGNQQKNNLAIVTADGKNVAAASNTEQVSLDNHFLNEASSKHSYKPQYVVNNAGLLNSANNASGNIGVNVAAGAGNQQSNTLTLGSGCTVCAAGTGSKLAF	binds
